Test system: Medicago sativa
experiment.summary: Preemergence herbicidal activity against Medicago sativa (alfalfa) under greenhouse condition at 1.5 kg/ha applied immediately after seed planting
Type: functional
Reported Activity values for a set of compounds

{"smiles.input": "CCOCCOC(=O)/C(C#N)=C(/C)NCc1cnc(Cl)s1", "target.entity": "Medicago sativa", "Activity [%]": 47}
{"smiles.input": "CCOCCOC(=O)/C(C#N)=C(\\NCc1ccc(Cl)cc1)C(C)C", "target.entity": "Medicago sativa", "Activity [%]": 0}
{"smiles.input": "CCOCCOC(=O)/C(C#N)=C(/CC)NCc1cnc(Cl)s1", "target.entity": "Medicago sativa", "Activity [%]": 46}
{"smiles.input": "CCOCCOC(=O)/C(C#N)=C(\\NCc1cnc(Cl)s1)C(C)C", "target.entity": "Medicago sativa", "Activity [%]": 16}
{"smiles.input": "CCOCCOC(=O)/C(C#N)=C(\\NCc1cnc(Cl)s1)SC", "target.entity": "Medicago sativa", "Activity [%]": 28}
{"smiles.input": "COCCOC(=O)/C(C#N)=C(/C)NCc1cnc(Cl)s1", "target.entity": "Medicago sativa", "Activity [%]": 0}
